# System: proline iminopeptidase (PIP)
# test_method_notes: Terminal amino acid cleavage of peptide-linker conjugates monitored by LCMS, PIP
# Assay type: biochemical
# run_parameters: incubated with PIP

| substance | target_of_assay | Cleaved by PIP |
| --- | --- | --- |
| DPDPDP{LYS(N3)} [Entry 9] | proline iminopeptidase (PIP) | Yes |
| FPFPFP{LYS(N3)} [Entry 8] | proline iminopeptidase (PIP) | Yes |
| KPKPKP{LYS(N3)} [Entry 10] | proline iminopeptidase (PIP) | No |
| KPKPKP{LYS(N3)} [Entry 11] | proline iminopeptidase (PIP) | Yes |

----------
# target_of_assay: rat aminopeptidase N (Rat APN) (Rattus norvegicus)
# test_method_notes: Terminal amino acid cleavage of peptide-linker conjugates monitored by LCMS, Rat APN
# Assay type: biochemical
# run_parameters: incubated with Rat APN
Square brackets hold non-standard residues; d marks the D form. Ends that are not written are not given here. Lys(N3) = [N-]=[N+]=NCCCC[C@H](N)C(=O)O
experimental_readout: Cleaved by Rat APN

Example entries begin here.
| substance | Cleaved by Rat APN |
| --- | --- |
| AAMAAM{LYS(N3)} [Entry 7] | Yes |
| FFMFFM{LYS(N3)} (FFMFFM[Lys(N3)]; also: oligo linker) [Entry 6, 73, aromatic class, oligo linker] | Yes |
| DDMDDM{LYS(N3)} [Entry 5] | Yes |
| KKMKKM{LYS(N3)} [2] (KKMKKM[Lys(N3)]; also: oligo linker) [Entry 2, 71, positive class, oligo linker] | No |
| KKMKKM{LYS(N3)} [4] (KKMKKM[Lys(N3)]; also: PEG4 linker) [Entry 4, 71, positive class, PEG4 linker] | Yes |

q: Enter reported Cleaved by Rat APN observed with rat aminopeptidase N (Rat APN) (Rattus norvegicus) for KKMKKM{LYS(N3)} [3] (KKMKKM[Lys(N3)]; also: oligo-PEG linker) [Entry 3, 71, positive class, oligo-PEG linker]
a: No
